parameter.measured: melting point

Answered cases to consult:
>>> value("COc1ccc2cc(C(C)C(=O)OCc3ccc(OC(=O)OCCC(C)(C)C)cc3)ccc2c1 (stereo not given)")
"63 to 64 °C"
>>> value("CC(C)(C)OC(=O)N1CCCC[C@H]1C(OC(=O)Nc1ccc2[nH]ncc2c1)c1cccc(C(=O)O)c1 (stereo not given in full)")
"178 °C"

Prompt line: What does the data say about its melting point? Entry: N#CCCNC(=O)c1cccc(-c2ccc3occ(-c4ccc(Cl)cc4Cl)c3c2)c1
Response line: 159 to 161 °C

Prompt line: What does the data say about its melting point? Entry: c1ccc(CO[C@@H]2CCC[C@H]2Nc2nc(N3CCN(c4ccccc4)CC3)nc3c2SCC3)cc1
Response line: 100 to 105 °C

Prompt line: What does the data say about its melting point? Entry: O=C1N(C(c2ccccc2)c2ccccc2)c2ccccc2C1(O)c1cc2c(cc1O)OCCC2 (stereo not given)
Response line: 204 to 206 °C

---

parameter.measured: melting point

>>> value("COc1ccc2c(c1)C(=O)Nc1ccccc1N2")
"216 to 218 °C"
>>> value("CC(=O)Nc1nc(CCc2ccc(NC(=O)CNC(=O)OC(C)(C)C)cc2)c(Cc2ccc(S(C)(=O)=O)cc2)s1")
"186 to 188 °C"

Prompt line: What does the data say about its melting point? Entry: COc1cc2ncc(C#N)c(Nc3ccc(O)c(Cl)c3)c2cc1OC
Response line: 230 to 232 °C

Prompt line: What does the data say about its melting point? Entry: COc1ccc(CCNC(=O)C(=O)NCc2ccccn2)cc1OC1CCCC1
Response line: 141 to 143 °C

Prompt line: What does the data say about its melting point? Entry: COC(=O)c1cc2c(cc1OC)OCO2
Response line: 74 to 75 °C

Prompt line: What does the data say about its melting point? Entry: FC(F)c1nc2ccccc2n1-c1nc(NCc2ccncc2)nc(N2CCOCC2)n1
Response line: 188 to 190 °C

Prompt line: What does the data say about its melting point? Entry: CC(=O)OC1CSC(Oc2cccc(-c3nccs3)c2)C(OC(C)=O)C1OC(C)=O (configuration not stated)
Response line: 65 °C

Prompt line: What does the data say about its melting point? Entry: O=P(O)(O)Cc1ccc(-c2ccccc2)cc1
Response line: 246 to 248 °C

Prompt line: What does the data say about its melting point? Entry: CC(CC(F)(F)CC(C)(C)O)C1CCC2C3CC=C4CC(O)CCC4(C)C3CCC12C (configuration not stated)
Response line: 148 to 149 °C

Prompt line: What does the data say about its melting point? Entry: CC1(C)CCCC(C)(C)N1Cc1ccc2cc(NC(=O)c3ccc(-c4ccc(Cl)cc4)nc3)ccc2n1
Response line: 258 to 259 °C

Prompt line: What does the data say about its melting point? Entry: COc1cccc(OC)c1-c1cc(C(=O)NC2(C(=O)O)C3CCCC2CCC3)nn1-c1ccc(C(=O)N(C)CCCN(C)C)cc1C(C)C (configuration not stated)
Response line: 160 °C

Prompt line: What does the data say about its melting point? Entry: O=C(O)c1ccccc1C(=O)c1ccc(N2CCCC2)cc1O
Response line: 190 to 192 °C

Prompt line: What does the data say about its melting point? Entry: Cc1c(C)c2c(c(C)c1OCc1ccccc1)CC[C@@](C)(CO)O2
Response line: 66 to 69.5 °C

Prompt line: What does the data say about its melting point? Entry: CCO/C(=N/OC(C)=O)C1Cc2cc(C(=O)c3ccccc3F)c(O)c(Cl)c2O1 (configuration not stated)
Response line: 111 to 112 °C

Prompt line: What does the data say about its melting point? Entry: COc1cccc(F)c1-c1cc(NC(=O)C2CCNCC2)ncn1
Response line: 140 to 143 °C

Prompt line: What does the data say about its melting point? Entry: CC(=O)NC(=O)C(=O)c1ccccc1
Response line: 124 to 125 °C

Prompt line: What does the data say about its melting point? Entry: O=[N+]([O-])c1ccc(N2CCCC2)c(S(=O)(=O)O)c1
Response line: 178 to 179 °C
